system: SFRP-1 (Homo sapiens, UniProt Q8N474)
Sequence (Q8N474 32-314): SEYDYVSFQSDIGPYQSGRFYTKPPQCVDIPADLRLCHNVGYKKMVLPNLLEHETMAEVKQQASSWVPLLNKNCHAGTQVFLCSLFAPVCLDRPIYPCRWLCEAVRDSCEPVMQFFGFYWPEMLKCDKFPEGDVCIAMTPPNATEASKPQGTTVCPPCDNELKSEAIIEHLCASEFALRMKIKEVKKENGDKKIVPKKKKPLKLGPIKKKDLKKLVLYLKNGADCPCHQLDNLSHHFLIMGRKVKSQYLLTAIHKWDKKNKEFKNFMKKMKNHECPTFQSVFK
method-description: Cell-based assay for in vitro measurement of SFRP-1/SARP2 antagonist activity (U2OS cells co-transfected with 16x TCF-tk-Luciferase reporter, Wnt and hSFRP-1);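 further: U2OS cells co-transfected with a TCF-tk luciferase reporter, a Wnt vector, hSFRP-1 or empty vector and CMV-βgal, luciferase luminescence read in cell lysates alongside βgal activity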
test-conditions: U2OS, read-out: Fold Induction with SFRP-1, Conc 15 μM; single dose; luciferase reporter, fold induction over SFRP-1 control; cells with SFRP-1

| compound | fold induction at 15 µM |
| --- | --- |
| CCCc1ccc(S(=O)(=O)c2ccccc2)cc1S(=O)(=O)NCCC1CCOCC1 [Example 553] | 2.5 |
| C#CCOC(=O)N1CCC(NS(=O)(=O)c2cc(S(=O)(=O)c3ccccc3)ccc2C)CC1 [Example 487] | 2.1 |
| CC(C)c1ccc(S(=O)(=O)c2ccc(F)cc2)cc1S(=O)(=O)NC1CCNCC1 [Example 520] | 3.3 |
| CCCc1ccc(S(=O)(=O)c2ccc(F)cc2)cc1S(=O)(=O)NCCc1ccccc1 [Example 559] | 2.3 |
| CC(C)c1ccc(S(=O)(=O)c2ccc3[nH]ccc3c2)cc1S(=O)(=O)NCCc1ccccn1 [Example 540] | 3.6 |
| O=S(=O)(NCCc1ccncc1)c1cc(S(=O)(=O)c2ccccc2)ccc1Cl [Example 641] | 3 |
| CC(C)c1ccc(S(=O)(=O)c2ccc(N3CCN(C)CC3)cc2)cc1S(=O)(=O)NCCC1CCOCC1 [Example 549] | 3.6 |
| CC(C)c1ccc([S@+]([O-])c2ccccc2)cc1S(=O)(=O)NCCc1ccccn1 [Example 590] | 2.9 |
| CC(C)c1ccc(S(=O)(=O)c2ccc(NCCC#N)cc2)cc1S(=O)(=O)NCC1CCOCC1 [Example 536] | 3 |
| CC(C)c1ccc(S(=O)(=O)c2cccc3cccnc23)cc1S(=O)(=O)NCCc1ccccn1 [Example 510] | 1.9 |
| COC(=O)C(C)(C)NS(=O)(=O)c1cc(S(=O)(=O)c2ccccc2)ccc1Cl [Example 654] | 1 |
| CCNC(=O)N1CCC(NS(=O)(=O)c2cc(S(=O)(=O)c3ccccc3)ccc2C)CC1 [Example 501] | 2.5 |
| CC(C)c1ccc(S(=O)(=O)c2ccc(N3CCNCC3)cc2)cc1S(=O)(=O)NC1CCOCC1 [Example 628] | 3.2 |
| CC(C)c1ccc(S(=O)(=O)c2cc(Cl)sc2Cl)cc1S(=O)(=O)NCCc1ccccn1 [Example 511] | 2.8 |
| CC(C)c1cc(C(C)C)c(S(=O)(=O)c2ccc(F)cc2)cc1S(=O)(=O)NCCc1cccnc1 [Example 632] | 3 |
| CC(C)c1ccc(S(=O)(=O)c2ccc(N(C)C)cc2)cc1S(=O)(=O)NCC1CCOCC1 [Example 545] | 2.5 |

Values from patent US20060276464A1
